Measured Drug uptake by item
System: MDA-MB-231
assay summary: Drug uptake in human MDA-MB-231 cells assessed as intracellular concentration at 300 nM after 3 hrs by LC-MS/MS
Format: ADME, cell-based
assay setup: mda-mb-231, 3 h, 0.3 µM
metric: Drug uptake (nM)

CN[C@@H](C)C(=O)N[C@H]1CCCC[C@H]2CC[C@@H](C(=O)N[C@@H](c3ccccc3)c3cn(CCCCc4ccc(CCCCn5cc([C@@H](NC(=O)[C@@H]6CC[C@@H]7CCCC[C@H](NC(=O)[C@H](C)NC)C(=O)N76)c6ccccc6)nn5)cc4)nn3)N2C1=O; 541
CN[C@@H](C)C(=O)N[C@H]1CCCC[C@H]2CC[C@@H](C(=O)N[C@@H](c3ccccc3)c3cn(CCOCCOCCOCCn4cc([C@@H](NC(=O)[C@@H]5CC[C@@H]6CCCC[C@H](NC(=O)[C@H](C)NC)C(=O)N65)c5ccccc5)nn4)nn3)N2C1=O; 7.3
CN[C@@H](C)C(=O)N[C@H]1CCCC[C@H]2CC[C@@H](C(=O)N[C@@H](c3ccccc3)c3cn(CCc4ccc(CCn5cc([C@@H](NC(=O)[C@@H]6CC[C@@H]7CCCC[C@H](NC(=O)[C@H](C)NC)C(=O)N76)c6ccccc6)nn5)cc4)nn3)N2C1=O; 67.7
CN[C@@H](C)C(=O)N[C@H]1CCCC[C@H]2CC[C@@H](C(=O)N[C@@H](c3ccccc3)c3cn(Cc4ccc(Cn5cc([C@@H](NC(=O)[C@@H]6CC[C@@H]7CCCC[C@H](NC(=O)[C@H](C)NC)C(=O)N76)c6ccccc6)nn5)cc4)nn3)N2C1=O; 75.2
